- Test system: MDA-N
- EXPERIMENT_NOTES: NCI tumour cell line growth inhibition, 48 h
REPORTED_METRIC: TGI

CC(C)(C)N1NC1C1NN1C(C)(C)C (centres undefined): > 100 µM
c1ccc(CCN(Cc2nc3ccccc3[nH]2)Cc2nc3ccccc3[nH]2)cc1: 36.3 µM
C=C[C@@]1(C)CC(=O)[C@]2(O)[C@@]3(C)[C@@H](OC(C)=O)CCC(C)(C)[C@@H]3[C@H](OC(C)=O)[C@H](OC(C)=O)[C@@]2(C)O1: > 100 µM
CC1C[C@]2(C)C(=S)Nc3ccccc3[C@@H]2Nc2ccccc21 (some centres undefined): 37.4 µM
COC(=N)C12C(N)=NC(OC)(OC)C1(C#N)C21C(=O)N(c2ccccc2)N=C1C (centres undefined): > 100 µM
CCOC(=O)c1ccc(C(=O)/C(C#N)=C2\CCCN2)[nH]1: > 100 µM
CC(=O)Nc1ccc2c(C)c3c4ccccc4n(C)c3nc2n1: 34.5 µM
[N-]=[N+]=Nc1ccc2c(c1)Sc1ccccc1N2CCCCCl: > 100 µM
CC1=C(OC2OC(CO)C(O)C(O)C2O)C(=O)C[C@H]2C1=CC[C@@H]1[C@@]2(C)C(=O)C[C@]2(C)[C@@H]([C@@](C)(O)C(=O)CCC(C)(C)O)[C@H](O)C[C@@]12C (some centres undefined): > 100 µM

* * *

- Tested on: SK-MEL-2 melanoma
- EXPERIMENT_NOTES: NCI tumour cell line growth inhibition, 48 h
GI50 values by entry
REPORTED_METRIC: GI50

Nc1ccccc1C#C/C=C\C#Cc1ccc(Cl)cc1Cl: 25 µM
C/C=C(\C)C(=O)O[C@H]1C=CC(=O)O[C@H]1CNC(=O)[C@H](C)O: 20.1 µM
O=C(NOCC1CC1)c1ccc(F)c(F)c1Nc1ccc(I)cc1Cl: 0.166 µM
C[C@H]1CCC/C=C/[C@@H]2C[C@H](O)C[C@H]2[C@H](O)[C@@H](S(=O)CCN(C)C)CC(=O)O1 (stereo partly specified): 0.223 µM
O=C1OC(=O)C2C1C1(c3ccccc3)C(c3ccccc3)=C(c3ccccc3)C2(c2ccccc2)S1=O (stereo unspecified): > 100 µM
COc1ccc(/C=C\c2cc(OC)c(OC)c(OC)c2)cc1OCC(=O)Nc1nc2ccc(C(F)(F)F)cc2s1: 3.98 µM

* * *

- Test system: M14 melanoma
- EXPERIMENT_NOTES: NCI tumour cell line growth inhibition, 48 h; in the data active = GI50 below about 0.43 µM; inactive = the rest
Labels: true (1) = active, false (0) = inactive

N.N.NC(CS)C(=O)[O-].NC(CS)C(=O)[O-].[Pt+4] (stereo not given): false (0)
CC1=Cc2cc3[n-]c(cc4nc(cc5[n-]c(cc1n2)cc5C)C(C)=C4CCC(=O)O)c(CCC(=O)O)c3C.[Pd+2]: false (0)
COc1ccc(/C=C\c2cc(OC)c(OC)c(OC)c2)cc1OCC(=O)Nc1nc2ccc(C(F)(F)F)cc2s1: false (0)
Cc1ccc2c(=O)c3cccc(CC(=O)O)c3oc2c1C: false (0)
O=c1cc(-c2ccccc2)nc2n1CCN2Cc1ccccc1: false (0)
O=[N+]([O-])/C=C/c1c[nH]c2ccccc12: false (0)
C[C@]12CC[C@@H]3c4ccc(O)cc4CC[C@H]3[C@@H]1CC[C@@H]2NS(=O)(=O)Cc1ccc(Cl)cc1: false (0)
COc1ccc(-c2nc(-c3ccccc3)c(-c3ccccc3)n2C2CC2)cc1OC1CCCC1: false (0)
O=C(Oc1ccc(CCl)cc1)c1ccccc1: true (1)
O=C1c2ccccc2-c2c1c1ccccc1c(=O)n2CCNCCNCCn1c2c(c3ccccc3c1=O)C(=O)c1ccccc1-2: false (0)

Each recorded value in this set is attributed to PubChem BioAssay (NCI).
